# IC50 annotations
Biological target: HSV-1 helicase-primase (Human herpesvirus 1, UniProt P10189+P10236)
Construct: made in house; host or cells: Sf21 insect cells triply infected with recombinant baculoviruses
Sequence (P10189 whole entry): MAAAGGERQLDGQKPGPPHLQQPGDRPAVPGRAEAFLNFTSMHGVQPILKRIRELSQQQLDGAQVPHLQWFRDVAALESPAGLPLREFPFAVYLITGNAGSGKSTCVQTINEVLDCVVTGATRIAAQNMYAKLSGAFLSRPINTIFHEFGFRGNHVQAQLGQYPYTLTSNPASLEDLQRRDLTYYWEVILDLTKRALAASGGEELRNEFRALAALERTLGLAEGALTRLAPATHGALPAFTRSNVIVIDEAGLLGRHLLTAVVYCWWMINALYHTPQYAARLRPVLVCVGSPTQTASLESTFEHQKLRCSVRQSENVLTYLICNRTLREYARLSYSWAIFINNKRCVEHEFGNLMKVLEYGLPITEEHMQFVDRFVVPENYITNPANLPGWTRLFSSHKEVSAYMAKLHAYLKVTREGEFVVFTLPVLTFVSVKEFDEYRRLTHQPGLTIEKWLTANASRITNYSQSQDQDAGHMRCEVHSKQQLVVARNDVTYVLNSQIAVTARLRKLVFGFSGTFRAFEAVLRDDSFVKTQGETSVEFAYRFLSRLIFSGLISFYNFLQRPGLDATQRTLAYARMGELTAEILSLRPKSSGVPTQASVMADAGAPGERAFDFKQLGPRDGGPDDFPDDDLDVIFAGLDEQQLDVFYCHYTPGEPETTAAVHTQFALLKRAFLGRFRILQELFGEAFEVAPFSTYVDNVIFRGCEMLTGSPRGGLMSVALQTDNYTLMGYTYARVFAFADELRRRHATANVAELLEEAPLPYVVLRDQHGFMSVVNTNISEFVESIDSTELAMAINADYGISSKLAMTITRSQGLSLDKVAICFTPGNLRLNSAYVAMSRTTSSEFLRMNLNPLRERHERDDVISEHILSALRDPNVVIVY
Sequence (P10192 whole entry, further chain): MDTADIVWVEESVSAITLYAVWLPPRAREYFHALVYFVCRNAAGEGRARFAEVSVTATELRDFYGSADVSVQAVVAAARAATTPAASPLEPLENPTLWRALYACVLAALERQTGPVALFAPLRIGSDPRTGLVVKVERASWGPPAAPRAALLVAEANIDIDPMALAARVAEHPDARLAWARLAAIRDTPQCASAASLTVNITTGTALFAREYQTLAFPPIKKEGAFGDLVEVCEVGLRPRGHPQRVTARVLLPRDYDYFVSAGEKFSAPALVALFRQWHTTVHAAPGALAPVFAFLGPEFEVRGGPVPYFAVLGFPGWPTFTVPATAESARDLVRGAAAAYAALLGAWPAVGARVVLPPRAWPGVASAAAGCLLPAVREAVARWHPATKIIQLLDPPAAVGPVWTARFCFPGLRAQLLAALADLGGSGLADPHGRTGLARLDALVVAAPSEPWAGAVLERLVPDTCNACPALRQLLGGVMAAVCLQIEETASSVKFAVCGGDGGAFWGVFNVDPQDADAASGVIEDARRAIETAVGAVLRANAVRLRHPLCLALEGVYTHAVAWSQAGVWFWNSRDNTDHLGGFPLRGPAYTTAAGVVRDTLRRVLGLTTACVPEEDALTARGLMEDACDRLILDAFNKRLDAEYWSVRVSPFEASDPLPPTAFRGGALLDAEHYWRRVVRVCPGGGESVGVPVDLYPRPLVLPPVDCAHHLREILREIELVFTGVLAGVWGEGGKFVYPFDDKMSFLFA
Sequence (P10236 whole entry): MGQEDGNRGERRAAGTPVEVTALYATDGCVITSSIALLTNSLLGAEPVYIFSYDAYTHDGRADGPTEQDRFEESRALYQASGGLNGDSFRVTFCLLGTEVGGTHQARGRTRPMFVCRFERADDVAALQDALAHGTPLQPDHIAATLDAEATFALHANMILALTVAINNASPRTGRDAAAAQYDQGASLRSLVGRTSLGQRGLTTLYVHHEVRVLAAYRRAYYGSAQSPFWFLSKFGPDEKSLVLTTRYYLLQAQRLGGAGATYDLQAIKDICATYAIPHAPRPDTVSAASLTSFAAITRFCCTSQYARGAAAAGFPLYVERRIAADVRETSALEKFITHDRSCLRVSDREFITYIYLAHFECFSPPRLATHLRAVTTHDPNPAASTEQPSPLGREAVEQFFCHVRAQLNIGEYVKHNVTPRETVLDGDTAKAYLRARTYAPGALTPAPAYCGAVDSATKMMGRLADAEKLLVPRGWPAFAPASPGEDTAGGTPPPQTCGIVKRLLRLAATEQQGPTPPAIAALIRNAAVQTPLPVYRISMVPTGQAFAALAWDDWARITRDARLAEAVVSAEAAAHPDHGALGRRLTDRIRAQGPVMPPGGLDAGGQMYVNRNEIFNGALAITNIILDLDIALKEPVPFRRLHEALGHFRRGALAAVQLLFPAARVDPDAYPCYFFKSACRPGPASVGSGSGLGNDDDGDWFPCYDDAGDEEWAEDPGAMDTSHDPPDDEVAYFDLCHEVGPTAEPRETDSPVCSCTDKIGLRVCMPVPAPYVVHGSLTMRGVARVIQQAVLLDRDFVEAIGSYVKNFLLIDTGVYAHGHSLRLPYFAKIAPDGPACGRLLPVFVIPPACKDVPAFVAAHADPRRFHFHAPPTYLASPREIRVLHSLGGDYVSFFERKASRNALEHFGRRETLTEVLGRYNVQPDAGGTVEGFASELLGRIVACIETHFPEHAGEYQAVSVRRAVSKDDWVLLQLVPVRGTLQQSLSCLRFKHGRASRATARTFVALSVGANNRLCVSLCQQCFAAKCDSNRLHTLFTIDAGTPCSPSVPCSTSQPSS
Test: HSV-1 DNA-dependent ATPase assay (inhibition of HSV-1 helicase-primase)
Assay type: biochemical
Conditions: Group 1 Table 1
Expressed in nM, but write only the number.

The examples below pair each entry with its known result.
# compound, unit_descriptor, measured_value
measured = [
    ("C[C@@H](C1CCCCC1)N(CC(=O)Nc1ccc(-c2csc(N)n2)cc1)C(=O)OC(C)(C)C", "nM", 460),
    ("CC(c1ccccc1)N(CC(=O)Nc1ccc(-c2csc(N)n2)cc1)C(=O)c1cccnc1 (centres unmarked)", "nM", 260),
    ("CC(C)CN(CC(=O)Nc1ccc(-c2csc(N)n2)cc1)C(=O)C1CCCCC1", "nM", 480),
    ("C[C@@H](c1ccccc1)N(CC(=O)Nc1ccc(-c2csc(N)n2)cc1)C(=O)NC(C)(C)C", "nM", 700),
    ("Nc1nc(-c2ccc(NC(=O)CN(Cc3ccccc3)C(=O)N3CCOCC3)cc2)cs1", "nM", 140),
]

Recorded IC50 (compound Nc1nc(-c2ccc(NC(=O)CN(CC3CCCCC3)C(=O)c3ccncc3)cc2)cs1 ): 3900

The compound listed as CC(c1ccccc1)N(CC(=O)Nc1ccc(-c2csc(N)n2)cc1)C(=O)C1CCCCC1 (centres unmarked) [Example 53] shows IC50 equal to 38

====

The following molecules are listed with their measured IC50 values.
Target: HSV-1 helicase-primase (Human herpesvirus 1, UniProt P10189+P10236)
Experiment: HSV-1 DNA-dependent ATPase assay (inhibition of HSV-1 helicase-primase)
Conditions: Group 1 Table 1
Report the figure in nM without appending any unit label.

Known results for molecules:
# molecule, measured_target, unit_descriptor, IC50
rows = [
    ("Nc1nc(-c2ccc(NC(=O)CN(Cc3ccccc3F)C(=O)c3ccncc3)cc2)cs1", "HSV-1 helicase-primase (Human herpesvirus 1, UniProt P10189+P10236)", "nM", 47),
    ("CC(C)COC(=O)N(CC(=O)Nc1ccc(-c2csc(N)n2)cc1)Cc1ccccc1", "HSV-1 helicase-primase (Human herpesvirus 1, UniProt P10189+P10236)", "nM", 170),
    ("CC(C)CN(CC(=O)Nc1ccc(-c2csc(N)n2)cc1)C(=O)OC(C)(C)C", "HSV-1 helicase-primase (Human herpesvirus 1, UniProt P10189+P10236)", "nM", 1800),
    ("Cc1cccc(C)c1OCC(=O)N(CC(=O)Nc1ccc(-c2csc(N)n2)cc1)Cc1ccccc1", "HSV-1 helicase-primase (Human herpesvirus 1, UniProt P10189+P10236)", "nM", 490),
    ("CC(C)(C)OC(=O)N1CCC(C(=O)N(CC(=O)Nc2ccc(-c3csc(N)n3)cc2)CC2CCCCC2)CC1", "HSV-1 helicase-primase (Human herpesvirus 1, UniProt P10189+P10236)", "nM", 4400),
    ("Nc1nc(-c2ccc(NC(=O)CN(CC3CCCCC3)C(=O)c3cccnc3)cc2)cs1", "HSV-1 helicase-primase (Human herpesvirus 1, UniProt P10189+P10236)", "nM", 2500),
    ("Nc1nc(-c2ccc(NC(=O)CN(Cc3ccc(Cl)cc3)C(=O)c3ccncc3)cc2)cs1", "HSV-1 helicase-primase (Human herpesvirus 1, UniProt P10189+P10236)", "nM", 570),
    ("Nc1nc(-c2ccc(NC(=O)CN(Cc3ccc(Cl)cc3)C(=O)CC3CCCCC3)cc2)cs1", "HSV-1 helicase-primase (Human herpesvirus 1, UniProt P10189+P10236)", "nM", 430),
]

Note to self: IC50 of [N-]=[N+]=Nc1ccc(C(=O)N(CC(=O)Nc2ccc(-c3csc(N)n3)cc2)Cc2ccncc2)cc1 with HSV-1 helicase-primase (Human herpesvirus 1, UniProt P10189+P10236) was 1000

Tested on HSV-1 helicase-primase (Human herpesvirus 1, UniProt P10189+P10236), the item CC(c1ccccc1)N(CC(=O)Nc1ccc(-c2csc(N)n2)cc1)C(=O)C1CCCCC1 (stereo not shown) [Example 52] showed IC50 equal to 87

Item: CC(c1ccccc1)N(CC(=O)Nc1ccc(-c2csc(N)n2)cc1)C(=O)OC(C)(C)C (stereo not shown) [Example 89] | System: HSV-1 helicase-primase (Human herpesvirus 1, UniProt P10189+P10236) | IC50: 98

Simply: Nc1nc(-c2ccc(NC(=O)CN(CC3CCCCC3)S(=O)(=O)N3CCOCC3)cc2)cs1 , HSV-1 helicase-primase (Human herpesvirus 1, UniProt P10189+P10236), IC50 = 2600

HSV-1 helicase-primase (Human herpesvirus 1, UniProt P10189+P10236) IC50 of Nc1nc(-c2ccc(NC(=O)CN(Cc3ccc(F)cc3)C(=O)C3CCCCC3)cc2)cs1 is 42

// molecule CC(C)(C)NC(=O)N(CC(=O)Nc1ccc(-c2csc(N)n2)cc1)Cc1ccccc1 , assay HSV-1 helicase-primase (Human herpesvirus 1, UniProt P10189+P10236), IC50 value: 76

The recorded IC50 with HSV-1 helicase-primase (Human herpesvirus 1, UniProt P10189+P10236) for Nc1nc(-c2ccc(NC(=O)CN(CCc3ccccc3)C(=O)C3CCCCC3)cc2)cs1 was 180

Readout IC50 for CN(C(=O)N(CC(=O)Nc1ccc(-c2csc(N)n2)cc1)Cc1ccccc1)C(C)(C)C , test system HSV-1 helicase-primase (Human herpesvirus 1, UniProt P10189+P10236), was 26

====

Each entry below carries its recorded pIC50.
Molecular target: HSV-1 helicase-primase (Human herpesvirus 1, UniProt P10189+P10236)
Experiment: HSV-1 DNA-dependent ATPase assay (inhibition of HSV-1 helicase-primase)
Details: Group 1 Table 1
Schema: pIC50 number; meaning minus log10 of the concentration expressed in molar units.

// worked examples, pIC50 included
# molecule, measured_value
data = [
    ("Nc1nc(-c2ccc(NC(=O)CN(Cc3ccccc3)S(=O)(=O)N3CCOCC3)cc2)cs1 [Example 96]", 6.54),
    ("Nc1nc(-c2ccc(NC(=O)CN(CC3CCCCC3)C(=O)CC3CCCC3)cc2)cs1 [Example 75]", 6.68),
    ("C[C@@H](c1ccccc1)N(CC(=O)Nc1ccc(-c2csc(N)n2)cc1)C(=O)Cc1ccccn1 [Example 135]", 6.11),
]

Turning now to a further record.
Note to self: pIC50 of CC(c1ccccc1)N(CC(=O)Nc1ccc(-c2csc(N)n2)cc1)C(=O)c1ccncc1 (stereo not shown) [Example 137] with HSV-1 helicase-primase (Human herpesvirus 1, UniProt P10189+P10236) was 6.01

====

Biological target: HSV-1 helicase-primase (Human herpesvirus 1, UniProt P10189+P10236)
Experiment: HSV-1 DNA-dependent ATPase assay (inhibition of HSV-1 helicase-primase)
Details: Group 1 Table 1
This section presents compounds with their documented IC50 values.
Numbers only; they are read as nM.

Consider the reported IC50 for these compounds:
# compound, IC50 [nM]
records = [
    ("Cc1ccccc1CN(CC(=O)Nc1ccc(-c2csc(N)n2)cc1)C(=O)c1ccncc1", 190),
    ("Nc1nc(-c2ccc(NC(=O)CN(Cc3ccccc3)C(=O)Cc3ccncc3)cc2)cs1", 800),
    ("CC(c1ccccc1)N(CC(=O)Nc1ccc(-c2csc(N)n2)cc1)C(=O)OC(C)(C)C (stereo not drawn) [Example 88]", 2400),
]

Query CC(c1ccccc1)N(CC(=O)Nc1ccc(-c2csc(N)n2)cc1)C(=O)Cc1ccccn1 (stereo not drawn) yields IC50 of 4200

Value of measured IC50 for the entry Nc1nc(-c2ccc(NC(=O)CN(CCc3ccccc3)C(=O)c3cccnc3)cc2)cs1 : 350

Short answer for CC(C)(C)OC(=O)N(CC(=O)Nc1ccc(-c2csc(N)n2)cc1)CC1CCCCC1 : IC50 was 760

====

Known melting point of a selection of compounds

# compound, value_type, measured_value
rows = [
    ("Nc1nc(-c2ccc(NC(=O)[C@@H]3CCCN3C(=O)c3ccccc3)cc2)cs1 [Example 14]", "melting point", "132 to 133 °C"),
    ("Nc1nc(-c2ccc(NC(=O)CNCc3ccccc3)cc2)cs1 [Example 2]", "melting point", "162 to 163 °C"),
]

Turning now to a further compound:
Looking up Nc1nc(-c2ccc(NC(=O)[C@H]3CCC(=O)N3Cc3ccccc3)cc2)cs1 [Example 12] , I found its melting point recorded as 245 to 246 °C

====

The entries below come with measured melting point values attached.

Look over these answered cases.
# compound, value_type, measured_value
records = [
    ("Nc1nc(-c2ccc(NC(=O)CN(Cc3ccccc3)C(=O)C3CCCCC3)cc2)cs1", "melting point", "214.5 to 215.5 °C"),
    ("Nc1nc(-c2ccc(NC(=O)CCNCc3ccccc3)cc2)cs1", "melting point", "131 to 133 °C"),
    ("CC(C)(C)OC(=O)N1CCC[C@H]1C(=O)Nc1ccc(-c2csc(N)n2)cc1", "melting point", "238 to 239 °C"),
    ("Nc1nc(-c2ccc(NC(=O)[C@@H]3CCCN3Cc3ccccc3)cc2)cs1", "melting point", "207 to 209 °C"),
    ("Nc1nc(-c2ccc(NC(=O)CNCC3CCCCC3)cc2)cs1", "melting point", "164 to 166 °C"),
]

In the following, a different compound is considered.
Reported melting point for Nc1nc(-c2ccc(NC(=O)CN(Cc3ccccc3)S(=O)(=O)N3CCOCC3)cc2)cs1 was 193 to 194 °C
